# Species on record: Oryctolagus cuniculus
# methodSummary: Efficacy at M1 receptor measured by the ability to inhibit the electrically stimulated twitch of the rabbit vas deferens
# Type: functional, organism-based
pIC50: −log10 of the molar value.
endpoint: pIC50

- itemSmiles: "CCCCCCSc1nccnc1C1=CCCN(C)C1"
  pIC50: 6.65
- itemSmiles: "CCCCCCOc1nccnc1C1=CCCN(C)C1"
  pIC50: 6.58

* * *

# testedTarget: Muscarinic acetylcholine receptor M1 (Rattus norvegicus, UniProt P08482)
# methodSummary: In vitro binding affinity against rat hippocampus M1 receptor using [3H]oxotremorine-M (Oxo-M) as radioligand
# Assay type: tissue-based
pIC50: −log10 of the molar value.
endpoint: pIC50

- itemSmiles: "CCCCCCOc1nccnc1C1=CCCN(C)C1"
  pIC50: 7.70
- itemSmiles: "CCCCOc1nccnc1C1=CCCN(C)C1"
  pIC50: 7.77
- itemSmiles: "COc1nccnc1C1=CCCN(C)C1"
  pIC50: 6.07

A: CCCCCOc1nccnc1C1=CCCN(C)C1
B: CCCOc1nccnc1C1=CCCN(C)C1
C: CCOc1nccnc1C1=CCCN(C)C1
Data request: Task for the reader: rank each entry by its pIC50, from the minimum upward. In your reply, arrange the labels in the requested order.
Data returned: C, B, A
(C: 6.70, B: 7.24, A: 7.72)

A: CCCCCSc1nccnc1C1=CCCN(C)C1
B: CCCCCCSc1nccnc1C1=CCCN(C)C1
Data request: // select label with min value of measured pIC50 from [ A , B ] Indicate which entry you chose by stating its label.
Data returned: B
(B: 7.36, A: 7.89)

* * *

# testedTarget: UniProt:P08482
# Sequence (P08482 whole entry): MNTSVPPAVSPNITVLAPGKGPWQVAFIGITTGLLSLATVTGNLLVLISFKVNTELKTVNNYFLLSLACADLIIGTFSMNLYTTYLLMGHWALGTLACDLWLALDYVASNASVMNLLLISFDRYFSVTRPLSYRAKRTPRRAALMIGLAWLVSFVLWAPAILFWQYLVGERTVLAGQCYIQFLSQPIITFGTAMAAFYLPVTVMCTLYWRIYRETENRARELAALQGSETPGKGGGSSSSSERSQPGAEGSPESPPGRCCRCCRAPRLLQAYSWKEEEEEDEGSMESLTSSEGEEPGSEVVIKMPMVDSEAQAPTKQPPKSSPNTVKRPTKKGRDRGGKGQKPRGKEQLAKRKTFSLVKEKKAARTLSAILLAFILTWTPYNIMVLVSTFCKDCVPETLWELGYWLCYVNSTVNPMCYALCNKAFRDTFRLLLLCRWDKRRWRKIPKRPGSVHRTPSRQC
# methodSummary: Displacement of [3H]pirenzepine (Pz) from rat hippocampus muscarinic acetylcholine receptor M1
# Assay type: tissue-based
endpoint: IC50

Data request: Item "CN1CCC=C(c2nccnc2Cl)C1" has what recorded IC50?
Data returned: > 1000 nM

* * *

# Species on record: Oryctolagus cuniculus
# methodSummary: Efficacy at M1 receptor measured by the ability to inhibit the electrically stimulated twitch of the rabbit vas deferens
# Assay type: functional
endpoint: Max (%)
Please respond with the number in % and leave the unit unwritten.

- itemSmiles: "CCOc1nccnc1C1=CCCN(C)C1"
  endpoint: "Max"
  quantitativeReadout: 14
- itemSmiles: "CCCOc1nccnc1C1=CCCN(C)C1"
  endpoint: "Max"
  quantitativeReadout: 4
- itemSmiles: "CCCCCCOc1nonc1C1=CCCN(C)C1"
  endpoint: "Max"
  quantitativeReadout: 47

Data request: Please report the recorded Max for "CCCCCSc1nccnc1C1=CCCN(C)C1" .
Data returned: 18

Data request: Which Max value is on record for "CCCCCCOc1nccnc1C1=CCCN(C)C1" ?
Data returned: 93

Data request: Return reported Max; argument: "CCCCCCSc1nccnc1C1=CCCN(C)C1"
Data returned: 62

Data request: Given the entry "CCCCCOc1nccnc1C1=CCCN(C)C1" , report its measured Max.
Data returned: 29
